# target desc: Scribble PDZ1 (Homo sapiens)
# Construct: human Scribble PDZ1 aa 719–829 in; made in house; host or cells: E. coli BL21 Gold (DE3)
# Sequence (Q14160 719-829): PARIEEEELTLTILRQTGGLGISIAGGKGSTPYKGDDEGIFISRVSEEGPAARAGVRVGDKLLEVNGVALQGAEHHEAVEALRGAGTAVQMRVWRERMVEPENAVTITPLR
# experimental protocol: Phosphomimetic ProP-PD selection with NGS
# Format: binding
# recorded conditions: bait Scribble PDZ1; mean of selections 1-3
quantity name: Mean fraction #NGS counts mimetic peptide / total count selection

Record excerpt, results attached:
entry sequence | value
EARLWETSI | 0.0002246
VKRLLESVF | 0.005379
PIHSLETEL | 0.002226
RSRSISEDV | 0
HSIKQETAV | 6.299e-5
LAPNIIEQL | 2.8202e-5
EGSYLVTSV | 1.46e-5
QKFRAETAL | 0.002401
PLHELETSL | 0
PEHVLQTQI | 0.0001068

1: ARVSKEEPL
2: PLHSLEESL
3: IEWLAFSVL
4: KREFIESNV
[Q] Rank the 4 sequences: largest Mean fraction #NGS counts mimetic peptide / total count selection first, smallest last. Record the ranking as a list of labels in the requested order.
[A] 4, 3, 1, 2

A: LPKIKEETV
B: RSRSIETDV
[Q] Could you determine which record has the numerically smaller Mean fraction #NGS counts mimetic peptide / total count selection? Candidates: A and B Answer by quoting the chosen item's label.
[A] A
(A: 0, B: 0.0006725)

A: VRKLPETEL
B: GELALLTKL
[Q] Lab note: check whether A or B shows the higher recorded Mean fraction #NGS counts mimetic peptide / total count selection. Indicate your choice by writing its label.
[A] B
(B: 0.0001134, A: 4.38e-5)

P: EPTVHVTEL
Q: VREKLPSNL
[Q] Could you kindly indicate whether P or Q has the higher Mean fraction #NGS counts mimetic peptide / total count selection value? Write the label of whichever entry you select.
[A] P
(P: 0.0001138, Q: 0)

All values here come from paper PMC6100724.
